Target: α-glucosidase (Saccharomyces cerevisiae, UniProt P53341)
Construct: purchased Sigma-Aldrich
Sequence (P53341 whole entry): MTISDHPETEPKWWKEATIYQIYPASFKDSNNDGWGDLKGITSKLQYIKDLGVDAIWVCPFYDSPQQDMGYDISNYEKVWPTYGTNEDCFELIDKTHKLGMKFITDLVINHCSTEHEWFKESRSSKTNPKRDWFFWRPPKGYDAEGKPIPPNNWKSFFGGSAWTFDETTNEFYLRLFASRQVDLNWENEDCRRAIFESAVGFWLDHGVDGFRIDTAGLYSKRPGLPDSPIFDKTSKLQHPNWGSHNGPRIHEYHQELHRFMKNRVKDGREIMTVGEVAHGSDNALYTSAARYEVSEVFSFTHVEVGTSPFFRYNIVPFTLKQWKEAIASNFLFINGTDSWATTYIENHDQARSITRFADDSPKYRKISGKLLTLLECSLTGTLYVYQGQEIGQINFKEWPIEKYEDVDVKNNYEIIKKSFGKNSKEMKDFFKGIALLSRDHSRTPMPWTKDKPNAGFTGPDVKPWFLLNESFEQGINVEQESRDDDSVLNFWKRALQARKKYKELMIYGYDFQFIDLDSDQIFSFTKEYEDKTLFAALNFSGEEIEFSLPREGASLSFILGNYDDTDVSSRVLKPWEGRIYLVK
Assay: CD spectra, secondary structure contents of α-glucosidase
Format: binding
Conditions: molar ratio [α-Glu]:[Comp.] 1:3
Metric name: Rndm Coil (%)

Test smiles	Unit string	Numeric result
CN(C)c1ccc(-c2c3n(c(=O)c4ccccc24)-c2ccccc2C3=O)cc1	%	33.40
O=C1c2ccccc2-n2c1c(-c1ccc3ccccc3c1)c1ccccc1c2=O	%	35.80
O=C1c2cc(Cl)ccc2-n2c1c(-c1ccccc1)c1ccccc1c2=O	%	35.10
Cc1ccc2c(c1)-n1c(c(-c3ccccc3)c3cc(C)ccc3c1=O)C2=O	%	34.90
O=C1c2ccccc2-n2c1c(-c1ccccc1)c1ccc(F)cc1c2=O	%	34.70

###

# Vmax listing for each entry below
Biological target: α-glucosidase (Saccharomyces cerevisiae, UniProt P53341)
Construct: purchased Sigma-Aldrich
Test: α-glucosidase inhibition kinetics (enzyme kinetics and Lineweaver-Burk substrate kinetics)
Format: biochemical
Conditions: inhibition kinetics constant
Metric name: Vmax

Compound	Result
O=C1c2ccccc2-n2c1c(-c1ccccc1)c1ccc(F)cc1c2=O [Compound 18]	0.08 µM/min/mg
CN(C)c1ccc(-c2c3n(c(=O)c4ccccc24)-c2ccccc2C3=O)cc1 [Compound 9]	0.12 µM/min/mg
O=C1c2ccccc2-n2c1c(-c1ccc3ccccc3c1)c1ccccc1c2=O [Compound 11]	0.06 µM/min/mg
O=C1c2cc(Cl)ccc2-n2c1c(-c1ccccc1)c1ccccc1c2=O [Compound 13]	0.08 µM/min/mg
Cc1ccc2c(c1)-n1c(c(-c3ccccc3)c3cc(C)ccc3c1=O)C2=O [Compound 19]	0.05 µM/min/mg

###

# β-Turn listing for each entry below
Biological target: α-glucosidase (Saccharomyces cerevisiae)
Construct: purchased Sigma-Aldrich
Experiment: CD spectra, secondary structure contents of α-glucosidase
Format: binding
Settings: molar ratio [α-Glu]:[Comp.] 1:1
Metric name: β-Turn (%)

Compound	Metric name	Numeric result
CN(C)c1ccc(-c2c3n(c(=O)c4ccccc24)-c2ccccc2C3=O)cc1 [Compound 9]	β-Turn	19.30
O=C1c2ccccc2-n2c1c(-c1ccccc1)c1ccc(F)cc1c2=O [Compound 18]	β-Turn	19.40
O=C1c2ccccc2-n2c1c(-c1ccc3ccccc3c1)c1ccccc1c2=O [Compound 11]	β-Turn	20.00
Cc1ccc2c(c1)-n1c(c(-c3ccccc3)c3cc(C)ccc3c1=O)C2=O [Compound 19]	β-Turn	19.40
O=C1c2cc(Cl)ccc2-n2c1c(-c1ccccc1)c1ccccc1c2=O [Compound 13]	β-Turn	19.30

###

Biological target: α-glucosidase (Saccharomyces cerevisiae, UniProt P53341)
Construct: purchased Sigma-Aldrich
Experiment: CD spectra, secondary structure contents of α-glucosidase
Format: binding
Settings: molar ratio [α-Glu]:[Comp.] 1:1
Entries annotated with measured α-Helix
Metric name: α-Helix (%)

Compound	Unit string	Numeric result
CN(C)c1ccc(-c2c3n(c(=O)c4ccccc24)-c2ccccc2C3=O)cc1 [Compound 9]	%	10.80
Cc1ccc2c(c1)-n1c(c(-c3ccccc3)c3cc(C)ccc3c1=O)C2=O [Compound 19]	%	12.90
O=C1c2ccccc2-n2c1c(-c1ccc3ccccc3c1)c1ccccc1c2=O [Compound 11]	%	8.40
O=C1c2cc(Cl)ccc2-n2c1c(-c1ccccc1)c1ccccc1c2=O [Compound 13]	%	8.80
O=C1c2ccccc2-n2c1c(-c1ccccc1)c1ccc(F)cc1c2=O [Compound 18]	%	11.10

###

Biological target: α-glucosidase (Saccharomyces cerevisiae, UniProt P53341)
Construct: purchased Sigma-Aldrich
Test: CD spectra, secondary structure contents of α-glucosidase
Assay type: binding
Conditions: molar ratio [α-Glu]:[Comp.] 1:1
Catalogue of Rndm Coil values

Test smiles	Rndm Coil / %
O=C1c2cc(Cl)ccc2-n2c1c(-c1ccccc1)c1ccccc1c2=O	35.60
CN(C)c1ccc(-c2c3n(c(=O)c4ccccc24)-c2ccccc2C3=O)cc1	35.10
O=C1c2ccccc2-n2c1c(-c1ccc3ccccc3c1)c1ccccc1c2=O	35.60
O=C1c2ccccc2-n2c1c(-c1ccccc1)c1ccc(F)cc1c2=O	35.00
Cc1ccc2c(c1)-n1c(c(-c3ccccc3)c3cc(C)ccc3c1=O)C2=O	34.60

Measured values drawn from paper PMC10343752 for this set.
